Values were extracted from patent US20030099960A1.

Molecular target: human UGT2B7 (Homo sapiens)
Sequence (P16662 24-529): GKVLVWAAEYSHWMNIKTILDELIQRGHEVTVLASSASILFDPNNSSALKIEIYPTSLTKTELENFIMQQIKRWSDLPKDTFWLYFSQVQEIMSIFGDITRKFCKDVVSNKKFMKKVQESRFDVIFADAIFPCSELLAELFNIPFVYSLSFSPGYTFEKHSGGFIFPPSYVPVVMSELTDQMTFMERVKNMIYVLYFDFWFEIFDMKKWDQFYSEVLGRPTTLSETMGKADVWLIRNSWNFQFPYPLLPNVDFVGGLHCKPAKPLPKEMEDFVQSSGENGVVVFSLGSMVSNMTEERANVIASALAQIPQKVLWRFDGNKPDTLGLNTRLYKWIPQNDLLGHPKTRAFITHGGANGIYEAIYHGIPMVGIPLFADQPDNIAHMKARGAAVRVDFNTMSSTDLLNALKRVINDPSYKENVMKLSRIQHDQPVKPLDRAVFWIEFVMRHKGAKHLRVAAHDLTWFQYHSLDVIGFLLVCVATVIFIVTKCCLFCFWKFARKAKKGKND
Details: read-out: Apparent Km of epirubicin glucuronidation; microsomes (insect baculosomes) expressing UGT2B7; mean ± SE
Endpoint: Km (µM)
Please state the figure in µM; there is no need to write the unit.

## Input Give human UGT2B7 (Homo sapiens) Km for the following molecule: COc1cccc2c1C(=O)c1c(O)c3c(c(O)c1C2=O)C[C@@](O)(C(=O)CO)C[C@@H]3O[C@H]1C[C@H](N)[C@@H](O[C@@H]2O[C@H](C(=O)O)[C@@H](O)[C@H](O)[C@H]2O)[C@H](C)O1 [Epirubicin glucuronide, 4′-O-β-D-glucuronyl-4′-epi-doxorubicin]
## Output 149
